molecular target: GRID2IP_2, A4D2P6; experiment: holdup assay; parameters: key: below the threshold = too weak to quantify, mostly under pKd 3.1 to 4; conditions: plain residues with an end cap or a label only (N-terminal biotin on a linker: ttds)
Sequence (A4D2P6 272-370): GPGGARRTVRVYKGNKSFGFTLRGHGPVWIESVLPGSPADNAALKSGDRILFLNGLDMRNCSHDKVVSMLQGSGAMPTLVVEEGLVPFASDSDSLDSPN
assay_endpoint: pKd

Would you please look over these solved cases?
- binder: "EMDRRPATVV [PLCB4, Q15147]"
  pKd: 3.93
- binder: "SSLQSLETSV [ATP2B4, P23634]"
  pKd: "below the threshold"
- binder: "RLQRRRETQV [HPV18-E6, P06463]"
  pKd: "below the threshold"
- binder: "KKYVDAETSL [SLC4A7, Q9Y6M7]"
  pKd: 4.02
- binder: "DKDPHSETAL [TMIGD1, Q6UXZ0]"
  pKd: "below the threshold"

Challenge: What measured pKd goes with RHTTSTETAV [HPV30-E6, P36809] ?
Response given: below the threshold
